Please go through the items and note down their Cell growth relative to control.
- Test system: HL-60(TB)
- Assay protocol: Antiproliferative activity against human HL-60(TB) cells assessed as mean cell growth at 10 uM incubated for 48 hrs by SRB assay relative to control
- Assay type: functional

Query :: Cell growth relative to control lookup needed for CCN1C(=O)N(CC)C2C1NN=c1s/c(=C\c3ccccc3)c(=O)n12 (configuration not stated) , thanks.
Result :: 19%

Query :: # query: Cell growth relative to control of entry CCN1C(=O)N(CC)C2C1NN=c1s/c(=C\c3ccc(F)cc3)c(=O)n12 (configuration not stated)
Result :: 21%

Query :: Would you mind telling me what Cell growth relative to control value was observed for CCN1C(=O)N(CC)C2C1NN=c1s/c(=C\c3ccc(OC)cc3)c(=O)n12 (configuration not stated) ?
Result :: 19%

Query :: Need Cell growth relative to control of CCN1C(=O)N(CC)C2C1NN=c1s/c(=C\c3ccccc3Br)c(=O)n12 (configuration not stated) , thanks.
Result :: 21%

Query :: Could you share which Cell growth relative to control value was measured for CCN1C(=O)N(CC)C2C1NN=c1s/c(=C\c3cccc([N+](=O)[O-])c3)c(=O)n12 (configuration not stated) ?
Result :: 23%

Query :: Name the reported Cell growth relative to control value associated with the compound CN1C(=O)N(C)C2C1NN=c1s/c(=C\c3ccc(F)cc3)c(=O)n12 (configuration not stated)
Result :: 28%

Query :: Reported Cell growth relative to control for CCN1C(=O)N(CC)C2C1NN=c1s/c(=C\c3ccccc3F)c(=O)n12 (configuration not stated) : what is it?
Result :: 18%

Query :: I have this compound here, CN1C(=O)N(C)C2C1NN=c1s/c(=C\c3ccccc3F)c(=O)n12 (configuration not stated) , and I need its recorded Cell growth relative to control.
Result :: 21%

Query :: # lookup: Cell growth relative to control of CN1C(=O)N(C)C2C1NN=c1s/c(=C\c3ccc(Cl)cc3Cl)c(=O)n12 (configuration not stated)
Result :: 27%

Query :: Find the recorded Cell growth relative to control belonging to CCN1C(=O)N(CC)C2C1NN=c1s/c(=C\c3ccc(Br)cc3)c(=O)n12 (configuration not stated) and report it.
Result :: 19%

Query :: Which Cell growth relative to control value belongs to CCN1C(=O)N(CC)C2C1NN=c1s/c(=C\c3ccc(C(F)(F)F)cc3)c(=O)n12 (configuration not stated) ?
Result :: 19%

Query :: # query: Cell growth relative to control of entry CCN1C(=O)N(CC)C2C1NN=c1s/c(=C\c3ccc([N+](=O)[O-])cc3)c(=O)n12 (configuration not stated)
Result :: 26%

====

- System: Panc02
- Assay protocol: Inhibition of cell growth in mouse Panc02 cells incubated for 72 hrs by MTT assay
- Type: functional
Kindly state GI50 for each of the entries shown.
Respond with a number, then the unit of measure.

Query :: For the compound shown here, CN1C(=O)N(C)C2C1NN=c1s/c(=C\c3ccccc3F)c(=O)n12 (stereo not given) , give the reported GI50.
Result :: 0.016 µM

Query :: If you can, please state the reported GI50 value of CCN1C(=O)N(CC)C2C1NN=c1s/c(=C\c3ccccc3)c(=O)n12 (stereo not given) .
Result :: 0.08 µM

Query :: What GI50 value was documented for this compound, COc1ccc(/C=c2\sc3n(c2=O)C2C(NN=3)N(C)C(=O)N2C)cc1 (stereo not given) ?
Result :: 0.4 µM

Query :: # GI50 lookup, item CCN1C(=O)N(CC)C2C1NN=c1s/c(=C\c3ccc(C(F)(F)F)cc3)c(=O)n12 (stereo not given)
Result :: 2 µM

Query :: Please look up its GI50: CCN1C(=O)N(CC)C2C1NN=c1s/c(=C\c3ccc(OC)cc3)c(=O)n12 (stereo not given)
Result :: 0.016 µM

====

- Tested on: COLO357
- Assay protocol: Inhibition of cell growth in human COLO357 cells incubated for 72 hrs by MTT assay
- Type: functional, cell-based
- Test context: COLO357, time 72 hrs
Assay readout: GI50 (nM)
Form entry: value (nM) — number only.

Query :: Lab note: need GI50 for CCN1C(=O)N(CC)C2C1NN=c1s/c(=C\c3ccc(C(F)(F)F)cc3)c(=O)n12 (stereo not drawn) on COLO357, anyone have it?
Result :: 2000

Query :: GI50 of CN1C(=O)N(C)C2C1NN=c1s/c(=C\c3ccc(Cl)cc3Cl)c(=O)n12 (stereo not drawn) on COLO357?
Result :: 80

Query :: Please state recorded GI50 (tested on COLO357) of CCN1C(=O)N(CC)C2C1NN=c1s/c(=C\c3ccc([N+](=O)[O-])cc3)c(=O)n12 (stereo not drawn)
Result :: 400

Query :: # value lookup — system COLO357, readout GI50, item CCN1C(=O)N(CC)C2C1NN=c1s/c(=C\c3ccc(F)cc3)c(=O)n12 (stereo not drawn)
Result :: 80

Query :: Reported GI50 for COLO357, given CCN1C(=O)N(CC)C2C1NN=c1s/c(=C\c3ccccc3)c(=O)n12 (stereo not drawn) ?
Result :: 80

Query :: Please state recorded GI50 (tested on COLO357) of CCN1C(=O)N(CC)C2C1NN=c1s/c(=C\c3ccc(Br)cc3)c(=O)n12 (stereo not drawn)
Result :: 80

Query :: Observed GI50 on COLO357 for CN1C(=O)N(C)C2C1NN=c1s/c(=C\c3ccccc3F)c(=O)n12 (stereo not drawn) , please.
Result :: 80

Query :: State its GI50 on COLO357: CCN1C(=O)N(CC)C2C1NN=c1s/c(=C\c3ccc(Cl)cc3Cl)c(=O)n12 (stereo not drawn)
Result :: 16

Query :: Param readout= GI50; system= COLO357; entry= CCN1C(=O)N(CC)C2C1NN=c1s/c(=C\c3ccccc3F)c(=O)n12 (stereo not drawn) ; returns value.
Result :: 16

Query :: Could you share what GI50 was measured for CCN1C(=O)N(CC)C2C1NN=c1s/c(=C\c3cccc(F)c3)c(=O)n12 (stereo not drawn) , tested on COLO357?
Result :: 80

Query :: Given the entry CCN1C(=O)N(CC)C2C1NN=c1s/c(=C\c3cccc([N+](=O)[O-])c3)c(=O)n12 (stereo not drawn) , what GI50 was observed with COLO357?
Result :: 400

Query :: // lookup GI50 | system=COLO357 | key= COc1ccc(/C=c2\sc3n(c2=O)C2C(NN=3)N(C)C(=O)N2C)cc1 (stereo not drawn)
Result :: 400

Query :: Could you share what GI50 was measured for CCN1C(=O)N(CC)C2C1NN=c1s/c(=C\c3ccc(OC)cc3)c(=O)n12 (stereo not drawn) , tested on COLO357?
Result :: 400

====

- Tested on: Panel NCI-60 (60 carcinoma cell lines)
- Assay protocol: Antiproliferative activity against human panel NCI-60 (60 carcinoma cell lines) incubated for 48 hrs by SRB assay
- Format: functional
Assay readout: GI50 (µM)
Field format: number, assumed µM, no unit text.

Query :: Reported GI50, molecule CCN1C(=O)N(CC)C2C1NN=c1s/c(=C\c3cccc(F)c3)c(=O)n12 (configuration not stated) : ____
Result :: 2.45

Query :: GI50 for CCN1C(=O)N(CC)C2C1NN=c1s/c(=C\c3ccc([N+](=O)[O-])cc3)c(=O)n12 (configuration not stated) ?
Result :: 1.04

Query :: Can you share its GI50? I mean this molecule: CCN1C(=O)N(CC)C2C1NN=c1s/c(=C\c3ccccc3Br)c(=O)n12 (configuration not stated)
Result :: 0.92

Query :: Tell me the measured GI50 of COc1ccc(/C=c2\sc3n(c2=O)C2C(NN=3)N(C)C(=O)N2C)cc1 (configuration not stated) , please.
Result :: 7.32

Query :: So what's the measured GI50 for this one? CCN1C(=O)N(CC)C2C1NN=c1s/c(=C\c3ccccc3)c(=O)n12 (configuration not stated)
Result :: 2.29

Query :: Form field: reported GI50 of CCN1C(=O)N(CC)C2C1NN=c1s/c(=C\c3cccc([N+](=O)[O-])c3)c(=O)n12 (configuration not stated)
Result :: 2.02

Query :: # GI50 lookup, item CN1C(=O)N(C)C2C1NN=c1s/c(=C\c3ccc(C(F)(F)F)cc3)c(=O)n12 (configuration not stated)
Result :: 4.21

====

- Test system: Panel NCI-60 (60 carcinoma cell lines)
- Assay protocol: Antiproliferative activity against human panel NCI-60 (60 carcinoma cell lines) incubated for 48 hrs by SRB assay
- Type: functional
Assay readout: LC50

Query :: What value of measured LC50 is listed for COc1ccc(/C=c2\sc3n(c2=O)C2C(NN=3)N(C)C(=O)N2C)cc1 (configuration not stated) ?
Result :: > 100 µM

Query :: What value of LC50 has been recorded for this entry: CCN1C(=O)N(CC)C2C1NN=c1s/c(=C\c3ccccc3)c(=O)n12 (configuration not stated)
Result :: > 97.6 µM

Query :: Field request: LC50 | item: CCN1C(=O)N(CC)C2C1NN=c1s/c(=C\c3cccc([N+](=O)[O-])c3)c(=O)n12 (configuration not stated)
Result :: > 98.7 µM

Query :: Requested field: LC50. Item: CN1C(=O)N(C)C2C1NN=c1s/c(=C\c3ccc(Cl)cc3Cl)c(=O)n12 (configuration not stated)
Result :: > 100 µM

Query :: Entry under review: CN1C(=O)N(C)C2C1NN=c1s/c(=C\c3ccccc3F)c(=O)n12 (configuration not stated) . Reported LC50?
Result :: > 97.6 µM

Query :: // LC50 lookup, key: CN1C(=O)N(C)C2C1NN=c1s/c(=C\c3ccc(F)cc3)c(=O)n12 (configuration not stated)
Result :: > 97.6 µM

Query :: What does the record list as LC50 for CCN1C(=O)N(CC)C2C1NN=c1s/c(=C\c3ccc(OC)cc3)c(=O)n12 (configuration not stated) ?
Result :: > 95.5 µM
